# System: Plasmodium falciparum
# EXPERIMENTAL_PROTOCOL: Antimalarial activity against Plasmodium falciparum W2 assessed as plasmodial LDH activity after 72 hrs
# Format: functional, organism-based
# CONDITION: Plasmodium falciparum, W2, 72 h; read-out: IC50
RECORDED_ENDPOINT: IC50 (µM)
One number for each entry, in µM.

COMPOUND	IC50 (µM)
Cc1ccccc1C1OOC(c2ccc(CO)cc2)OO1 (stereo unspecified)	1.9
Cc1ccc(C2OOC(c3ccc(CNCCc4ccccc4)cc3)OO2)cc1 (stereo unspecified)	6.39
Cc1ccc(C2OOC(c3ccc(C(=O)N4CCN(c5ccccc5)CC4)cc3)OO2)cc1 (stereo unspecified)	7.16
COc1ccc(NCc2ccc(C3OOC(c4ccc(C)cc4)OO3)cc2)cc1 (stereo unspecified)	10.2

The following compounds each have a reported value; give each one's IC50.
1. CC(C)c1ccc(C2OOC(c3ccc(C=O)cc3)OO2)cc1 (stereo unspecified)
2. Cc1ccc(C2OOC(c3ccc(CNc4cc(Cl)c(Cl)cc4Cl)cc3)OO2)cc1 (stereo unspecified)

1. 3.11
2. 6.42

---

Hi there, I'd appreciate the recorded pIC50 for every entry that follows.
# Test system: Plasmodium falciparum
# EXPERIMENTAL_PROTOCOL: Antimalarial activity against Plasmodium falciparum W2 assessed as plasmodial LDH activity after 72 hrs
# Type: functional, organism-based
# CONDITION: Plasmodium falciparum, W2, 72 h; read-out: IC50
One number for each entry, as −log10 of the molar value.

COMPOUND	MEASURED
Cc1ccc(C2OOC(c3ccc(CNc4ccc(Cl)cc4)cc3)OO2)cc1 (configuration not stated)	5.77
Cc1cccc(C2OOC(c3ccc(CO)cc3)OO2)c1 (configuration not stated)	5.86
CCc1ccc(C2OOC(c3ccc(C(=O)NCCCNc4ccnc5cc(Cl)ccc45)cc3)OO2)cc1 (configuration not stated)	5.61
CC(C)c1ccc(C2OOC(c3ccc(CO)cc3)OO2)cc1 (configuration not stated)	5.72
Cc1ccc(C2OOC(c3ccc(C(=O)O)cc3)OO2)cc1 (configuration not stated)	5.03

The following compounds each have a reported value; give each one's pIC50.
1. Cc1ccc(C2OOC(c3ccc(CNc4ccccc4)cc3)OO2)cc1 (configuration not stated)
2. Cc1ccc(C2OOC(c3ccc(CN(C)c4ccccc4)cc3)OO2)cc1 (configuration not stated)
3. Cc1ccc(C2OOC(c3ccc(CNc4ccc(O)cc4)cc3)OO2)cc1 (configuration not stated)
4. CCCCNC(=O)c1ccc(C2OOC(c3ccc(CC)cc3)OO2)cc1 (configuration not stated)
5. Cc1ccc(C2OOC(c3ccc(CNc4ccc(C(C)C)cc4)cc3)OO2)cc1 (configuration not stated)
6. Cc1ccc(C2OOC(c3ccc(CNCc4ccccc4)cc3)OO2)cc1 (configuration not stated)

1. 5.80
2. 5.68
3. 5.15
4. 5.16
5. 5.49
6. 5.46

The following compounds each have a reported value; give each one's pIC50.
1. Cc1ccc(C2OOC(c3ccc(CNc4c(C)cccc4C)cc3)OO2)cc1 (configuration not stated)
2. Cc1ccc(C2OOC(c3ccc(/C=N/Cc4ccccc4)cc3)OO2)cc1 (configuration not stated)
3. Cc1ccc(C2OOC(c3ccc(CNc4ccccc4F)cc3)OO2)cc1 (configuration not stated)
4. Cc1ccc(C2OOC(c3ccc(CNc4ccc(Br)cc4)cc3)OO2)cc1 (configuration not stated)
5. Cc1ccc(C2OOC(c3ccc(C(=O)NCCNc4ccnc5cc(Cl)ccc45)cc3)OO2)cc1 (configuration not stated)
6. Cc1ccc(C2OOC(c3ccc(CNc4ccc(N)cc4)cc3)OO2)cc1 (configuration not stated)
7. Cc1ccc(C2OOC(c3ccc(/C=N\c4ccccc4S)cc3)OO2)cc1 (configuration not stated)

1: 5.84; 2: 5.19; 3: 5.74; 4: 5.30; 5: 5.82; 6: 5.13; 7: 5.29

The following compounds each have a reported value; give each one's pIC50.
1. CCc1ccc(NCc2ccc(C3OOC(c4ccc(C)cc4)OO3)cc2)cc1 (configuration not stated)
2. CCCNC(=O)c1ccc(C2OOC(c3ccc(C)cc3)OO2)cc1 (configuration not stated)
3. OCc1ccc(C2OOC(c3ccccc3)OO2)cc1 (configuration not stated)
4. COc1cc(NCc2ccc(C3OOC(c4ccc(C)cc4)OO3)cc2)cc(OC)c1 (configuration not stated)

1. 5.63
2. 4.86
3. 5.74
4. 5.04

Taken from ChEMBL document CHEMBL1795212.
